Reference for the values: patent US8178506B2

Tested on: Glut4
Method notes: Glut4 mRNA expression in adipocytes (real-time PCR)
Format: cell-based, human
Test settings: differentiating adipocytes transfected with oligomeric compound; Table 75
In the oligonucleotide strings, read from the 5' end, every base follows the letter of its sugar. An asterisk marks phosphorothioate; unmarked linkages are phosphodiester. Other units and linkages are bracketed, terminal groups are in braces. A string of capitals states the bases alone. e = 2'-O-(2-methoxyethyl) (MOE); [5mC] = 5-methylcytosine
// reported GLUT4 mRNA for each item listed

Known GLUT4 mRNA results, listed for orientation:
>>> recorded_value("327902 (antisense eG*eG*e[5mC]*eT*eG*eT*e[5mC]*eA*eA*eT*eT*e[5mC]*eA*eT*eA*eG*eG*eT*e[5mC]*eA*eG) [compound 327902]")
"15 percentage of untreated control (UTC)"
>>> recorded_value("344343 (AUGCCCUUUCAUCAUUGCACUG; anti-miR; all 2'-MOE, all phosphorothioate, methylation of C and T or U not given here) [compound 344343]")
"4 percentage of untreated control (UTC)"
>>> recorded_value("344275 (antisense UCUAGUGGUCCUAAACAUUUCA; all 2'-MOE, all phosphorothioate, methylation of C and T or U not given here) [compound 344275]")
"21 percentage of untreated control (UTC)"
>>> recorded_value("328097 (antisense eT*eG*eT*e[5mC]*eA*eG*eA*eT*eA*eA*eA*e[5mC]*eA*eG*eA*eG*eT*eG*eG*eA*eA) [compound 328097]")
"62 percentage of untreated control (UTC)"

API: the following record is the query input.
// query Test system Glut4; read-out GLUT4 mRNA; what value for 328118 (antisense eT*eA*eT*eT*eA*eT*e[5mC]*eA*eG*e[5mC]*eA*eT*e[5mC]*eT*eG*e[5mC]*eT*eT*eG*e[5mC]*eA) [compound 328118] ?
// result 57 percentage of untreated control (UTC)
